Each entry below carries its recorded pKd.
Target: SCRIB_3, Q14160
Sequence (Q14160 999-1103): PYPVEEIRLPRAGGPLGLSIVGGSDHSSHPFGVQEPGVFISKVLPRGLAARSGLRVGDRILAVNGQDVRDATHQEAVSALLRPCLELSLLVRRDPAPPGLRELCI
Assay: holdup assay
Parameters: key: below the threshold = too weak to quantify, mostly under pKd 3.1 to 4
Conditions: plain residues with an end cap or a label only (N-terminal biotin on a linker: ado-ado)
Value type: pKd

[
  {
    "Binder": "SSALYGESDL [ACTN2, P35609]",
    "Value type": "pKd",
    "Readout number": 5.1
  },
  {
    "Binder": "CLREWCDAFL [BANF1, O75531]",
    "Value type": "pKd",
    "Readout number": 4.03
  },
  {
    "Binder": "SARSRLSSNL [HCN2, Q9UL51]",
    "Value type": "pKd",
    "Readout number": 4.32
  },
  {
    "Binder": "NLSIEKETKL [ASNSD1, Q9NWL6]",
    "Value type": "pKd",
    "Readout number": 4.97
  },
  {
    "Binder": "KKMPSIESDV [GRIN2A, Q12879]",
    "Value type": "pKd",
    "Readout number": 4.85
  },
  {
    "Binder": "YYKRPVQEWV [MMP24, Q9Y5R2]",
    "Value type": "pKd",
    "Readout number": 3.52
  },
  {
    "Binder": "TSQESEDTYL [TBC1D10A, Q9BXI6]",
    "Value type": "pKd",
    "Readout number": 4.16
  },
  {
    "Binder": "LPAHHNATRL [SLC34A1, Q06495;Q06495-1]",
    "Value type": "pKd",
    "Readout number": 4.02
  },
  {
    "Binder": "QHKTQLQTLI [BPIFA2, Q96DR5]",
    "Value type": "pKd",
    "Readout number": 4.2
  },
  {
    "Binder": "DDPSTAETVL [ABCA7, Q8IZY2]",
    "Value type": "pKd",
    "Readout number": 4.73
  },
  {
    "Binder": "SAKVRTVTSV [RASL11B, Q9BPW5]",
    "Value type": "pKd",
    "Readout number": 4.33
  }
]
